target: AHR (Homo sapiens); construct: U87 MG glioblastoma cells (ATCC #HTB-14) endogenously expressing AHR; endogenous in cells; host or cells: U87 MG glioblastoma cells (ATCC #HTB-14); assay: In vitro assay 1: antagonism in human cell line (AHR transactivation, firefly luciferase reporter, kynurenic acid prestimulated); type: cell-based; details: AHR Antagonism Human IC50 [M], firefly luciferase reporter
Sequence (P35869 11-848): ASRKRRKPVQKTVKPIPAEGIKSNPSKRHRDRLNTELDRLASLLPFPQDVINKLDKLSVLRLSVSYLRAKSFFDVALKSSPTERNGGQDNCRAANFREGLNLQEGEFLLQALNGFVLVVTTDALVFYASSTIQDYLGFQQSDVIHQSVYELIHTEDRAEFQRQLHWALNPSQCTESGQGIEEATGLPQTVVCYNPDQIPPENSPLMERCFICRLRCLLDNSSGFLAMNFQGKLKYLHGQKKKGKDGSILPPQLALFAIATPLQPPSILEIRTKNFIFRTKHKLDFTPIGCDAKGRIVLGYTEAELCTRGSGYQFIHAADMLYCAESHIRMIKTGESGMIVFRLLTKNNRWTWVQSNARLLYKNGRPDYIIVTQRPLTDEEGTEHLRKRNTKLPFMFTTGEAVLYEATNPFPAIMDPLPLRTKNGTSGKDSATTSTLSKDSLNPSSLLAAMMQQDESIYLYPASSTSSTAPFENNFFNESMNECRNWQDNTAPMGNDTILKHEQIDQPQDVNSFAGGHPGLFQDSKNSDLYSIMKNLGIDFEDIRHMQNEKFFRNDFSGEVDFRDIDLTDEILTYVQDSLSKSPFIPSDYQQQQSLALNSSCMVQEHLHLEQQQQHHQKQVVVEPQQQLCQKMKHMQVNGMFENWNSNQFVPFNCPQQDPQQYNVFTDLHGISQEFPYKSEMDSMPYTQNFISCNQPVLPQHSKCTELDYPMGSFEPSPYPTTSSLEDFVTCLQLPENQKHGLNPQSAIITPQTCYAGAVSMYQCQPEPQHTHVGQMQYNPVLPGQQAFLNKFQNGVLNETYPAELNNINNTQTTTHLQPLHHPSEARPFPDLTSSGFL
endpoint_label: IC50 (M)

- compound: "COc1ccc(-c2nc3c4cccc(C5CC5)c4nc(N[C@H]4CNCCNC4=O)n3n2)cc1 [Example 959]"
  IC50 [M]: "5.36e-08"
- compound: "CC[C@@H](Nc1nc2c(Br)cccc2c2nc(-c3ccnn3C)nn12)C(N)=O [Example 800]"
  IC50 [M]: "2.37e-09"
- compound: "COc1ccc(-c2nc3c4cccc(S(C)(=O)=O)c4nc(N[C@@H]4CCCCNC4=O)n3n2)cc1 [Example 842]"
  IC50 [M]: "4.03e-10"
- compound: "C[C@@H](Nc1nc2c(Br)cccc2c2nc(-c3cnn(C)c3)nn12)C(=O)N1CCN(C)CC1 [Example 786]"
  IC50 [M]: "2.2e-08"
- compound: "Cc1c(-c2nc3c4cccc(Br)c4nc(N[C@@H]4CCCCNC4=O)n3n2)cnn1C [Example 823]"
  IC50 [M]: "2.13e-09"

[1] CC(C)n1cc(-c2nc3c4cccc(F)c4nc(N[C@@H]4CNCCNC4=O)n3n2)cn1 [Example 971]
[2] COc1ccc(-c2nc3c4cccc(S(C)(=N)=O)c4nc(N[C@@H]4CCCCNC4=O)n3n2)cc1 (single isomer, unassigned) [Example 854]
For 1 and 2 , which recorded IC50 is lower? I would appreciate it if you answered with the label of your choice.
2
